- Tested On: Lethal factor (Bacillus anthracis) (UniProt P15917)
- Sequence (P15917 whole entry, looked up): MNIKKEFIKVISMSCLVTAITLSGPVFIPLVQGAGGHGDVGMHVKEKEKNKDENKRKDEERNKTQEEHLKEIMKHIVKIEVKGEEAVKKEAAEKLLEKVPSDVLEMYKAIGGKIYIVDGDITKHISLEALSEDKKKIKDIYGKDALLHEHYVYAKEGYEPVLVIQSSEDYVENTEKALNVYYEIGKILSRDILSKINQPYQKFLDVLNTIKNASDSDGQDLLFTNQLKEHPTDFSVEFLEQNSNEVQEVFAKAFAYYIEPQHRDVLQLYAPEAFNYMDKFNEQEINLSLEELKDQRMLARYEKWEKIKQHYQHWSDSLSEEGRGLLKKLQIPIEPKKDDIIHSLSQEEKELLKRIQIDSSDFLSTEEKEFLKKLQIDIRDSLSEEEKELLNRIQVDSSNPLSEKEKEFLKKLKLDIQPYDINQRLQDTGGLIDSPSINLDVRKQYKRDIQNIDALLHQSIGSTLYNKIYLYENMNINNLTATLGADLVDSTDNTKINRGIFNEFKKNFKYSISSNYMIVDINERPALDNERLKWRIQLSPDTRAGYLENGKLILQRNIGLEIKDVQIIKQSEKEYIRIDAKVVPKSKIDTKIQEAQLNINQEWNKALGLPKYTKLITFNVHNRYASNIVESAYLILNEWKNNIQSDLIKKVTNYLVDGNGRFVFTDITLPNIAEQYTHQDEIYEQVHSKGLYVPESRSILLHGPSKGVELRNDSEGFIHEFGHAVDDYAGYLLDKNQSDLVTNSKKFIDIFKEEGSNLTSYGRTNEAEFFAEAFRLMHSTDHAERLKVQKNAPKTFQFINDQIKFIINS
- Method: anthrax lethal factor cleavage blockers – biochemical, multiplex microsphere, MLPCN library, primary screen (AID 588501); further: plate controls were buffer without enzyme for full effect and enzyme alone for no effect
- Applied Conditions: multiplex microsphere protease cleavage assay, LF; at 10 µM; hits give high values
About 420 (0.12%) of roughly 360,000 compounds were called active. Many of the other results were omitted from the sample, so actives are more common in it than they were.
Readout Label: inhibition (%)
Lab book: enter the figure in %, no units written.

Example entries and their recorded answers appear below.
Compound | Unit Text | Reported
COC(=O)Cc1ccc(N(Cc2ccccc2F)S(=O)(=O)c2ccc(Br)cc2)cc1 | % | -0.1
O=C(Nc1cccc(F)c1)NC1CCCc2ccccc21 (stereo unspecified) | % | 0.6

[in] Missing value: inhibition, Lethal factor (Bacillus anthracis) (UniProt P15917), entry `O=C(Nc1cccc(F)c1)[C@@H]1CCCN1` . Fill in?
[out] 41.3

[in] Missing value: inhibition, Lethal factor (Bacillus anthracis) (UniProt P15917), entry `CCOC(=O)c1ccc(NC(=S)N2CCN(c3ccccn3)CC2)cc1` . Fill in?
[out] -15.7

[in] Missing value: inhibition, Lethal factor (Bacillus anthracis) (UniProt P15917), entry `CC(=NNC(=S)N1CCCCCC1)c1ccccn1` . Fill in?
[out] 50

[in] Missing value: inhibition, Lethal factor (Bacillus anthracis) (UniProt P15917), entry `O=C(COC(=O)CNC(=O)C1CCCCC1)Nc1cccc(F)c1` . Fill in?
[out] -8.5

###

- Tested On: Lethal factor (Bacillus anthracis)
- Method: anthrax lethal factor cleavage blockers – biochemical, multiplex microsphere, MLPCN library, primary screen (AID 588501)
- Applied Conditions: multiplex microsphere protease cleavage assay, LF; at 10 µM; hits give high values
Screen size: about 360,000 compounds; about 420 (0.12%) were called active. The list comes from a sample in which actives are over-represented; it also holds close analogues and randomly drawn compounds.
Measured inhibition, listed per entry for reference.
Lab book: enter the figure in %, no units written.

Compound | Readout Label | Reported
COc1cc(/C=C2\SC(=S)N(Nc3ncc(C(F)(F)F)cc3Cl)C2=O)cc(OC)c1OC | inhibition | 61.6
Cc1ccc(CSCC2Nc3ccc(C(=O)N4CCN(c5ccc(F)cc5)CC4)cc3NC2=O)cc1 (stereo not drawn) | inhibition | -0.9
COc1cc(NC(=O)CSc2nnc3ccc(-c4ccncc4)nn23)cc(OC)c1 | inhibition | -3.6
COC(c1ccccc1)c1nnc(CCC(=O)N2CCN(CCOc3ccccc3)CC2)o1 (stereo not drawn) | inhibition | 0.2
CC(C)N(C(=O)Cn1cc(SCC(=O)N2CCCC2)c2ccccc21)C(C)C | inhibition | -0.2

[in] Missing value: inhibition, Lethal factor (Bacillus anthracis), entry `COc1cc(-c2nnc(Cn3cc(C(F)(F)F)ccc3=O)o2)cc(OC)c1OC` . Fill in?
[out] 11.3

[in] Missing value: inhibition, Lethal factor (Bacillus anthracis), entry `Cc1ccc(CSCCNC(=O)CN(c2ccc(F)cc2)S(C)(=O)=O)cc1` . Fill in?
[out] 3

###

- Tested On: Lethal factor (Bacillus anthracis)
- Method: anthrax lethal factor cleavage blockers – biochemical, multiplex microsphere, MLPCN library, primary screen (AID 588501); further: plate controls were buffer without enzyme for full effect and enzyme alone for no effect
- Applied Conditions: multiplex microsphere protease cleavage assay, LF; at 10 µM; hits give high values
Hit rate of the full screen: of about 360,000 compounds, about 420 (0.12%) were called active. Many of the other results were omitted from the sample, so actives are more common in it than they were.
Readout Label: inhibition (%)
Lab book: enter the figure in %, no units written.

Example entries and their recorded answers appear below.
Compound | inhibition [%]
COc1ccccc1N(CC(=O)Nc1c(C)n(C)n(-c2ccccc2)c1=O)S(=O)(=O)c1ccccc1 | -3.9
O=C(Nc1cccc(F)c1)c1coc(=O)c(Br)c1 | 0.1
CN(C(=O)c1cccc(NC(=O)Cc2cccc([N+](=O)[O-])c2)c1)C1CCCCC1 | 2.5

[in] Dear colleague, I am looking for the recorded inhibition of the following compound: `COc1ccccc1NC(=S)N1CCC(NC(=O)C23CC4CC(CC(C4)C2)C3)CC1`
[out] -7.9

[in] Dear colleague, I am looking for the recorded inhibition of the following compound: `COc1ccc(Br)cc1CN(C)CC(=O)Nc1cc(Cl)cc(Cl)c1`
[out] -3.4

[in] Dear colleague, I am looking for the recorded inhibition of the following compound: `O=C(NNC(=O)c1ccccc1[N+](=O)[O-])Nc1ccccc1C(F)(F)F`
[out] -1.8

[in] Dear colleague, I am looking for the recorded inhibition of the following compound: Cc1cccc(N2CCN(C(C)C(=O)N3CCc4ccccc43)CC2)c1C (stereo unspecified)
[out] -6.6

[in] Dear colleague, I am looking for the recorded inhibition of the following compound: NC1=NC(=O)C(Cc2cccc(Cl)c2Cl)S1 (stereo unspecified)
[out] -6.2

[in] Dear colleague, I am looking for the recorded inhibition of the following compound: `COC(=O)c1ccc(NC(=O)C23CC4CC(C2)CC(n2cnc(Cl)n2)(C4)C3)cc1`
[out] -3.6

[in] Dear colleague, I am looking for the recorded inhibition of the following compound: CN(Cc1cn(Cc2ccc(C(F)(F)F)cc2)nn1)C1CN(Cc2cn(Cc3ccc(C(F)(F)F)cc3)nn2)S(=O)(=O)C1 (stereo unspecified)
[out] -0.1

[in] Dear colleague, I am looking for the recorded inhibition of the following compound: `O=C(NNC1=NCCC1)c1cccc(S(=O)(=O)N2CCCCC2)c1`
[out] -3.2

###

- Tested On: Lethal factor (Bacillus anthracis) (UniProt P15917)
- Method: anthrax lethal factor cleavage blockers – biochemical, multiplex microsphere, MLPCN library, primary screen (AID 588501); further: plate controls were buffer without enzyme for full effect and enzyme alone for no effect
- Applied Conditions: multiplex microsphere protease cleavage assay, LF; at 10 µM; hits give high values
Screen size: about 360,000 compounds; about 420 (0.12%) were called active. The sample holds actives, similar compounds and a random draw of the others, so the mix is not that of the screen.
Readout Label: inhibition

[in] Dear colleague, I am looking for the recorded inhibition of the following compound: `CCc1nn(CCCC(=O)Nc2ccc(C)c(C)c2)c(=O)c2cc3occc3n12`
[out] -0.7% (inactive)

[in] Dear colleague, I am looking for the recorded inhibition of the following compound: `COc1ccc(-c2nc3ccccc3n2CCC(C)C)cc1OC`
[out] 0.7% (inactive)

[in] Dear colleague, I am looking for the recorded inhibition of the following compound: `CS(=O)(=O)N(CC(=O)N1CCOCC1)c1cccc(Cl)c1Cl`
[out] -5.7% (inactive)

[in] Dear colleague, I am looking for the recorded inhibition of the following compound: COc1ccc2[nH]c(=O)c(C3c4cc(OC)c(OC)cc4CCN3C(=O)c3ccco3)cc2c1 (stereo not given)
[out] -1.5% (inactive)

[in] Dear colleague, I am looking for the recorded inhibition of the following compound: `COc1ccc(C2=NS(=O)(=O)N(C)C(C(=O)N3CCCCC3)=C2)cc1`
[out] -0.5% (inactive)

[in] Dear colleague, I am looking for the recorded inhibition of the following compound: `CC(C)C[C@@H]1Cc2[nH][nH]c(=O)c2[C@H](CCc2ccccc2)O1`
[out] -14.1% (inactive)

[in] Dear colleague, I am looking for the recorded inhibition of the following compound: COc1cc2c(cc1OC)C(C)N(S(=O)(=O)c1cnc(Cl)c(Cl)c1)CC2 (stereo not given)
[out] 3.2% (inactive)

[in] Dear colleague, I am looking for the recorded inhibition of the following compound: `O=C(O)c1ccc(S(=O)(=O)N2CCC(Cc3ccccc3)CC2)cc1`
[out] -1.5% (inactive)

[in] Dear colleague, I am looking for the recorded inhibition of the following compound: `Cc1ccc(NC(=O)CSCC(=O)N2CCOCC2)cc1`
[out] -4.8% (inactive)

[in] Dear colleague, I am looking for the recorded inhibition of the following compound: C=CCN(Cc1nc(-c2cc(OC)c3c(c2)OCO3)oc1C)C1CCS(=O)(=O)C1 (stereo not given)
[out] -1.3% (inactive)

###

Measured inhibition, listed per entry for reference.
- Tested On: Lethal factor (Bacillus anthracis)
- Method: anthrax lethal factor cleavage blockers – biochemical, multiplex microsphere, MLPCN library, primary screen (AID 588501); further: plate controls were buffer without enzyme for full effect and enzyme alone for no effect
- Applied Conditions: multiplex microsphere protease cleavage assay, LF; at 10 µM; hits give high values
Screen size: about 360,000 compounds; about 420 (0.12%) were called active. Only a selection was taken, and actives are over-represented in it overall.
Lab book: enter the figure in %, no units written.

Example entries and their recorded answers appear below.
Compound | inhibition (%)
O=C(NCc1ccccc1Cl)NC(=O)c1csc([N+](=O)[O-])c1 | -4.7
COC(=O)C[n+]1cccc2ccccc21 | 29.8
Cc1cc2nc(SCCN3CCOCC3)[nH]c2cc1C | 7.8
COc1c(C(=O)N2CCCC2)ccc2ccccc12 | 2.3
CC(=O)OCCN(CCCn1c(-c2ccncc2)nc2ccccc21)c1nc(-c2ccc(C)cc2)cs1 | 41.1
O=C(NCc1ccccc1)C1C(=O)N(Cc2ccccc2)C(=O)C1C1(O)CCCC1 (stereo unspecified) | 1.3
COc1cc(S(=O)(=O)N2CCN=C2c2ccccc2)ccc1Cl | -0.6
CCc1nc2ccc(C(=O)NC3CCN(Cc4ccccc4)CC3)cn2c1N(C)CCN1CCOCC1 | -2.5

[in] Missing value: inhibition, Lethal factor (Bacillus anthracis), entry `Cc1cc(C)cc(OCc2nnc(SCC(=O)OC3CCCCC3)o2)c1` . Fill in?
[out] -14.4

[in] Missing value: inhibition, Lethal factor (Bacillus anthracis), entry `CCN(C(=O)COC(=O)c1ccccc1O)c1cccc2ccccc12` . Fill in?
[out] -1.8

[in] Missing value: inhibition, Lethal factor (Bacillus anthracis), entry `O=[N+]([O-])c1ccc(C(S(=O)(=O)Cc2ccccc2)S(=O)(=O)Cc2ccccc2)cc1` . Fill in?
[out] -1.4
